- system.under.test: Ubiquitin-activating enzyme e1, putative (Leishmania donovani (strain BPK282A1)) (UniProt E9BSI1)
- Sequence (E9BSI1 as listed by the source): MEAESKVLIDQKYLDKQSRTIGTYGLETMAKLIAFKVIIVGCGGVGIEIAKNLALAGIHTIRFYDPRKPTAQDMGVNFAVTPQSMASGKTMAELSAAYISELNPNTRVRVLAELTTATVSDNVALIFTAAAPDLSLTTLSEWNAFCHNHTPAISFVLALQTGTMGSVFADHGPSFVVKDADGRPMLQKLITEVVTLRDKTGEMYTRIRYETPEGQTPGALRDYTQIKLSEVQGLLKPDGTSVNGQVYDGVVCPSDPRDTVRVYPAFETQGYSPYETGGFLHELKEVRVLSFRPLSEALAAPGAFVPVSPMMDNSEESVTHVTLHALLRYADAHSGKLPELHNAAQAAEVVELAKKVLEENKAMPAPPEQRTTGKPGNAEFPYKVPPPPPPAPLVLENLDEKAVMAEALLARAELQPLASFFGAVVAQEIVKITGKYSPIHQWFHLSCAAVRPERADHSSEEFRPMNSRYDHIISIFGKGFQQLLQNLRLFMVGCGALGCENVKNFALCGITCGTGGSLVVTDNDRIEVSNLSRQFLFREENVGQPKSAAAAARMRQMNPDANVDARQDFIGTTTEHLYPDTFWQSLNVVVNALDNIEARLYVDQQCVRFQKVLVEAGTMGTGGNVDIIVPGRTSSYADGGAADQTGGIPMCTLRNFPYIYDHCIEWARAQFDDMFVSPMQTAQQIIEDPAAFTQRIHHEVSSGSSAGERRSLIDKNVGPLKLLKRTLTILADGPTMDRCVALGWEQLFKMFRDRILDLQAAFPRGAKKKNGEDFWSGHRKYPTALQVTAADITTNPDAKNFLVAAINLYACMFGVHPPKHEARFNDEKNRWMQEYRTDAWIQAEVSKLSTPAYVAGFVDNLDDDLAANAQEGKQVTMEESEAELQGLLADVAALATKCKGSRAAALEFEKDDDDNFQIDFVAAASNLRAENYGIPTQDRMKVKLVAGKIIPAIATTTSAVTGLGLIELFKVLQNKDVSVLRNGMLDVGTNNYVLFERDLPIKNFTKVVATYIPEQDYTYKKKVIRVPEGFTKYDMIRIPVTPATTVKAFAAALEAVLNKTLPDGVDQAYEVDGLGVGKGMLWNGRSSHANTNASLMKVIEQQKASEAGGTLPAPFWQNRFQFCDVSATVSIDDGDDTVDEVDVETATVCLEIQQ
- assay.method.text: Leishmania donovani Ubiquitin Activating Enzyme (LdE1)
- Type: functional
- Parameters: scale not given: direction of the effect not stated beside the values
- condition.details: 30 µM
Results with a measured potency or affinity are listed apart.
Entries and their Percent Effect
I only need the number, in %, no unit after it.

[
  {
    "molecule": "O=C(Cn1ccc2ccccc21)NCc1ccc(C(=O)O)cc1",
    "value.units": "%",
    "Percent Effect": 2.63
  }
]

input: Look up Percent Effect for this molecule: CO[C@H]1CO[C@@]2(CCCN(C(=O)C3=CCCCC3)C2)C1
output: 13.3

input: For CCc1ncncc1C(=O)N1CCN(Cc2ccco2)CC1 , what is its reported Percent Effect?
output: 0

input: What Percent Effect value was documented for this molecule, O=C1CC(c2ccc(F)c(F)c2)c2snc(C(=O)O)c2N1 (configuration not stated) ?
output: -6.67

input: What value of measured Percent Effect is listed for CCC(C(=O)NCc1ccncc1)N(c1ccc(OC)cc1)S(C)(=O)=O (configuration not stated) ?
output: 2.67

input: Fill in the blank: the reported Percent Effect of Cc1cc(C)c2c(c1)C1(CC(=O)Nc3c1cnn3C(C)C)C(=O)N2 (configuration not stated) is ____.
output: 4

input: Find the recorded Percent Effect belonging to O=C(CCn1ccc2cc(Br)ccc21)NCc1ccc(C(=O)O)cc1 and report it.
output: 2.63

input: What does the record list as Percent Effect for Cn1cnnc1C1CCCN(C(=O)NCCNc2ccccn2)C1 (configuration not stated) ?
output: 18.2

input: State the recorded Percent Effect for this entry: Cc1noc(CCCC(=O)NC(C)c2cn(-c3ccccc3)nn2)n1 (configuration not stated)
output: 0

---

- system.under.test: Proteasome subunit beta (Trypanosoma cruzi)
- Sequence (whole entry): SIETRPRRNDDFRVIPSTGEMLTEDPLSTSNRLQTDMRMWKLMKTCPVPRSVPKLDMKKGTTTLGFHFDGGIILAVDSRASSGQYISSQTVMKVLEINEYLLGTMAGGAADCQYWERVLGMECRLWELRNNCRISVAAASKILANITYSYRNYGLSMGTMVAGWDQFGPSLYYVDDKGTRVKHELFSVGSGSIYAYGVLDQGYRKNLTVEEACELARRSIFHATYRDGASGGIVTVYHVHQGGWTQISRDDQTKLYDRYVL
- assay.method.text: Trypanosoma cruzi proteasome chymotrypsin-like activity (TcProtChymo) assay. Also: in the data most compounds retested in dose-response had high values.
- Type: functional
- Design: scale not given: direction of the effect not stated beside the values
- condition.details: 9.37 µM
Mark T only when Percent Effect stays strictly below 10%. Values equal to the cut-off are F.

[
  {
    "compound": "Cc1cc(-c2cnc(N3CCNC(=O)C3)nc2-c2cccnc2C)on1",
    "label.value": "T"
  },
  {
    "compound": "COCCN1CCCC(c2nc3c([nH]2)CC(C)(C)CNC3=O)C1 (stereo not given)",
    "label.value": "F"
  },
  {
    "compound": "O=C(NCCN1CCCCC1)c1nc(-c2ccc3cc[nH]c3c2)no1",
    "label.value": "F"
  }
]

input: For Cc1nn(-c2ccccc2)nc1C(=O)N1CCCC1c1cnn(C)c1 (stereo not given) , is the recorded Percent Effect below the cut-off of 10%?
output: T

input: Lab log: compare recorded Percent Effect with 10%; is it strictly lower for NCCn1nc(C2CCN(C(=O)CC3CCCCC3)C2)c2nccnc21 (stereo not given) ?
output: T

input: Given the entry N#Cc1ccnc(N2CCN(Cc3cccc(F)c3)CC2)c1 , would its reported Percent Effect be below 10%?
output: T

input: Threshold test, Percent Effect < 10%: COC(=O)c1cc(OCC2CCC2)cc(C(=O)N[C@@H]2CNCC[C@H]2O)c1
output: T

input: Just wondering, is Percent Effect of CC(C)c1nc(C2CCCN2C(=O)c2cnc[nH]2)no1 (stereo not given) below 10%?
output: T

input: Dear reviewer, please state whether COc1ccc(C)cc1NC(=O)Nc1cnc(N2CCN(C)CC2)nc1 has Percent Effect strictly beneath 10%.
output: T

input: Regarding Cc1ccc2c(c1)C1(CCNCC1)CN2C(=O)CN(C)C , kindly confirm whether its Percent Effect is beneath 10%.
output: F

input: Does this compound meet the criterion Percent Effect < 10%? CN(Cc1ccsc1)C(=O)c1cc2c([nH]c1=O)CCCC2=O
output: F

input: Check if Percent Effect falls below 10% for O=C(CCNC(=O)c1ccccc1)Nc1ccncc1 .
output: F

input: # TODO verify Percent Effect < 10% strictly for this compound: COCC1CN(C(=O)CNC(C)=O)Cc2ncnn2C1 (stereo not given)
output: T

input: Quick check: Percent Effect of CNC(=O)c1cnc(/C=C/c2cc(OC)c(OC)c(OC)c2)s1 under 10%?
output: F

input: Please state whether Percent Effect is below 10% for Cn1nc2c(cc1=O)CN(CC(=O)Nc1ccc(Cl)cn1)CC2
output: F

input: Is Percent Effect of CCO[C@@H]1CO[C@@]2(CCCN(C(=O)COc3ccccc3OC)C2)C1 strictly below 10%?
output: T

input: Quick check: does Cc1ccc(NC(=O)NC(C)c2nc[nH]n2)cc1 (stereo not given) have Percent Effect under 10%?
output: F

input: Dear reviewer, please state whether Cc1nc(CCNC(=O)C2CC(=O)N(C(C)(C)C)C2)sc1C (stereo not given) has Percent Effect strictly beneath 10%.
output: T

input: Given CCn1cnnc1CNC(=O)NCC(c1cccs1)N1CCCC1 (stereo not given) , is recorded Percent Effect strictly lower than 10%?
output: T

Where do these numbers come from? They come from ChEMBL document CHEMBL3988442.
